Values were extracted from patent US11278522B2.

Here, each record is paired with measured pIC50 data.
# system: human α3β4 nAChRs (Homo sapiens, UniProt P30926+P32297)
# Sequence (P32297 32-505): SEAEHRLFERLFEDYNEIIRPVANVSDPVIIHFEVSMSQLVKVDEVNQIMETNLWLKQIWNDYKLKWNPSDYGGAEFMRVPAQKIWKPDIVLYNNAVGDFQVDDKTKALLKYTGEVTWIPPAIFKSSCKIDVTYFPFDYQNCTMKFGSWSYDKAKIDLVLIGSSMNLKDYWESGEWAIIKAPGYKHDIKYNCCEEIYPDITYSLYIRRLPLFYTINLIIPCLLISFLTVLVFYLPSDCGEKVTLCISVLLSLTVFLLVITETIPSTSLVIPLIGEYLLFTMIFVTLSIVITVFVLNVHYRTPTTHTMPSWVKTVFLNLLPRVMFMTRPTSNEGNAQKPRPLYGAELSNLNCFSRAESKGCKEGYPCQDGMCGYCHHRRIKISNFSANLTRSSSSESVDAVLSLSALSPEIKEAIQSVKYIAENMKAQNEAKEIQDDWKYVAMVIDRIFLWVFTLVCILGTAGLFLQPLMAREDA
# Sequence (P30926 22-498): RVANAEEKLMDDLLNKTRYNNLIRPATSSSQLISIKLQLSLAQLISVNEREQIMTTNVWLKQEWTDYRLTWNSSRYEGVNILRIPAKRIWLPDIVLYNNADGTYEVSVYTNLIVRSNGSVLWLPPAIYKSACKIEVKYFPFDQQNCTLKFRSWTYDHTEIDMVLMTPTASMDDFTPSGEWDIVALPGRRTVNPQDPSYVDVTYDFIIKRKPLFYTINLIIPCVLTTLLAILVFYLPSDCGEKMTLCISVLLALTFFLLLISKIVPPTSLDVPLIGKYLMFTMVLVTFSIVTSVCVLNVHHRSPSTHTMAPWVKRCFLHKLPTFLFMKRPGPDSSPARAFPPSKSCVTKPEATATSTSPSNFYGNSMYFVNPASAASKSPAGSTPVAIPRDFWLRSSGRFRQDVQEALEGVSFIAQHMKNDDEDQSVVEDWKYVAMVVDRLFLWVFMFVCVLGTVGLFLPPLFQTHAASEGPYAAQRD
# assay.comment: 86Rb+ efflux assay, inhibition of nicotine-stimulated efflux, α3β4 nAChRs
# condition.notes: 86Rb+ efflux stimulated by 100 μM nicotine; HEK cells YXα3β4H1; mean ± standard error
Where a name gives a salt, the structure may show the parent alone.
The read-out pIC50 is expressed as -log10 of concentration in moles per litre.

Examples with their reported pIC50 follow.
compound	parameter.measured	test.value
CC=C1N(C)C(C)CC1(c1ccccc1)c1ccccc1 (single isomer, unassigned; (-)) [(−)-EDDP]	pIC50	6.15
CC=C1N(C)C(C)CC1(c1ccccc1)c1ccccc1 (single isomer, unassigned; (+)) [(+)-EDDP]	pIC50	6.05
CCC1=NC(C)CC1(c1ccccc1)c1ccccc1 (single isomer, unassigned; (+)) [(+)-EMDP, hydrochloride]	pIC50	5.13

Alright, here's another compound for you.
Please look up its pIC50: CCC1=NC(C)CC1(c1ccccc1)c1ccccc1 (single isomer, unassigned; (-)) [(−)-EMDP, hydrochloride]
5.15
